ASSAY EXPLANATION: Cytotoxicity in HeLa cells, ATP content measured with the ATPlite kit
Format: cell-based
CONDITION CONTEXT: human, TOX HELA pCC50
READOUT TYPE: CC50 at 3 days

Q: Report CC50 at 3 days for CCc1cc(C(=O)N2CCCCCC2C)nc2cc(-c3ccc(-c4cnc(C)n4C)cc3F)nn12 (centres unmarked) [Compound F11]
A: > 25.1 µM

Q: Report CC50 at 3 days for CCc1cc(C(=O)N2CCCCCC2C)nc2cc(-c3ccc(-c4cn(C)c(C)n4)cc3F)nn12 (centres unmarked) [Compound F10]
A: > 25.1 µM

Q: Report CC50 at 3 days for CCc1cc(C(=O)N2CCCCCC2C)nc2cc(-c3ccc(C(=O)O)cc3F)nn12 (centres unmarked) [Compound K2]
A: > 25.1 µM

Q: Report CC50 at 3 days for CCc1cc(C(=O)N2CCCCC[C@H]2C)nc2cc(-c3ccc(-n4cc(C(=O)O)cn4)cc3F)nn12 [Compound W2]
A: > 25.1 µM

Q: Report CC50 at 3 days for CCc1cc(C(=O)N2CCc3sccc3[C@H]2C)nc2cc(-c3ccc4c(c3F)OCC(C(=O)O)=C4)nn12 (racemic) [Compound F66]
A: 15.5 µM

Q: Report CC50 at 3 days for CCc1cc(C(=O)N2CCCCCC2C)nc2cc(-c3ccc(C(=O)NCCNC(C)=O)cc3F)nn12 (centres unmarked) [Compound L4]
A: > 25.1 µM

====

READOUT TYPE: melting point

Q: Report melting point for CCc1cc(C(=O)N2CCn3cccc3C2C)nc2cc(-c3ccc(/C=C/C(=O)O)cc3F)nn12 (centres unmarked) [Compound M43]
A: 255 to 260 °C

====

ASSAY EXPLANATION: Cytotoxicity in HeLa cells, ATP content measured with the ATPlite kit
Type: cell-based
CONDITION CONTEXT: human, TOX HELA pCC50
READOUT TYPE: CC50 at 3 days

Past entries and their recorded results:
COMPOUND: CCc1cc(C(=O)N2CCCCCC2C)nc2cc(-c3csc(NC(=O)C4CC4)n3)nn12 (stereo not drawn) [Compound E30]
READOUT TYPE: CC50 at 3 days
VAL: > 25.1 µM
//
COMPOUND: CCCNC(=O)c1ccc(-c2cc3nc(C(=O)N4CCCCCC4C)cc(CC)n3n2)c(F)c1 (stereo not drawn) [Compound L3]
READOUT TYPE: CC50 at 3 days
VAL: > 25.1 µM

Q: Report CC50 at 3 days for CCCCc1nc(Cl)c(-c2cc3nc(C(=O)N4CCCCCC4C)cc(CC)n3n2)[nH]1 (stereo not drawn) [Compound A22]
A: > 25.1 µM

Q: Report CC50 at 3 days for CCc1cc(C(=O)N2CCCCC[C@H]2C)nc2cc(-c3ccc(C(N)=O)cc3)nn12 [Compound A26]
A: > 25.1 µM

Q: Report CC50 at 3 days for CCc1cc(C(=O)N2CCCCCC2C)nc2cc(-c3ccc(-c4cccnc4)cc3F)nn12 (stereo not drawn) [Compound F4]
A: > 25.1 µM

Q: Report CC50 at 3 days for C[C@@H]1CCCCCN1C(=O)c1cc(C2(C)CC2)n2nc(-c3ccc(OCC(=O)O)cc3F)cc2n1 (racemic) [Compound F48]
A: > 100 µM

Q: Report CC50 at 3 days for CCc1cc(C(=O)N2CCCCCC2C)nc2cc(-c3ccc(-c4cncn4C)cc3F)nn12 (stereo not drawn) [Compound F13]
A: > 25.1 µM

Q: Report CC50 at 3 days for CCCC(C)N(C)C(=O)c1cc(CC)n2nc(-c3ccc(C(N)=O)cc3)cc2n1 (stereo not drawn) [Compound A28]
A: > 25.1 µM

Q: Report CC50 at 3 days for CCc1cc(C(=O)N2CCCCCC2C)nc2cc(-c3ccc(NS(=O)(=O)C4CC4)cc3F)nn12 (stereo not drawn) [Compound D2]
A: > 50.1 µM
